Just for reference, patent US20020090380A1 is where these values come from.

Test system: Nal^R mutants of E. coli
Type: cell-based, Escherichia coli
Settings: CAN 107; 5 μg/ml
measure-name: Growth in poison agar medium

compound	experimental-target	reported
C[C@@H]1CN(c2c(F)c(N)c3c(=O)c(C(=O)O)cn(C4CC4)c3c2F)C[C@H](C)N1 [Sparfloxacin]	Nal^R mutants of E. coli	+
CCn1cc(C(=O)O)c(=O)c2cc3c(cc21)OCO3 [Oxolinic Acid, oxolinic acid]	Nal^R mutants of E. coli	+
CCn1cc(C(=O)O)c(=O)c2cc(F)c(N3CCNC(C)C3)c(F)c21 (stereo not shown) [Lomefloxacin, lomefloxacin]	Nal^R mutants of E. coli	−
O=C(O)c1cn(C2CC2)c2cc(N3CCNCC3)c(F)cc2c1=O [Ciprofloxacin, ciprofloxacin]	Nal^R mutants of E. coli	−

---

Test system: Nal^R mutants of E. coli
Format: cell-based, Escherichia coli
Conditions: CAN 124; 5 μg/ml

compound	Growth in poison agar medium
C[C@@H]1CN(c2c(F)c(N)c3c(=O)c(C(=O)O)cn(C4CC4)c3c2F)C[C@H](C)N1	+
O=C(O)c1cn(C2CC2)c2cc(N3CCNCC3)c(F)cc2c1=O	−
CCn1cc(C(=O)O)c(=O)c2cc3c(cc21)OCO3	+
CCn1cc(C(=O)O)c(=O)c2cc(F)c(N3CCNC(C)C3)c(F)c21 (stereo not shown)	−

---

Test system: Nal^R mutants of E. coli
Assay type: cell-based, Escherichia coli
Conditions: CAN 113; 5 μg/ml
measure-name: Growth in poison agar medium

compound	reported
C[C@@H]1CN(c2c(F)c(N)c3c(=O)c(C(=O)O)cn(C4CC4)c3c2F)C[C@H](C)N1	+
CCn1cc(C(=O)O)c(=O)c2cc(F)c(N3CCNC(C)C3)c(F)c21 (stereo not shown)	−
CCn1cc(C(=O)O)c(=O)c2cc3c(cc21)OCO3	+
O=C(O)c1cn(C2CC2)c2cc(N3CCNCC3)c(F)cc2c1=O	−
